- measurement.context: in NMP, 328.2 K
parameter: solubility (mole fraction)

- molecular.string: "C=C(C)[C@@H]1CC[C@]2(CO)CC[C@]3(C)[C@H](CC[C@@H]4[C@@]5(C)CC[C@H](O)C(C)(C)[C@@H]5CC[C@]43C)[C@@H]12"
  reported.measurement: 0.00697

* * *

- measurement.context: in sec-butanol, 308.2 K
parameter: solubility (mole fraction)

- molecular.string: "C=C(C)[C@@H]1CC[C@]2(CO)CC[C@]3(C)[C@H](CC[C@@H]4[C@@]5(C)CC[C@H](O)C(C)(C)[C@@H]5CC[C@]43C)[C@@H]12"
  parameter: "solubility (mole fraction)"
  reported.measurement: 0.000845
